Assay: Cytotoxicity against human HPLF cells after 24 hrs
Format: cell-based
Settings: hplf, 24 h
outcomeMeasure: log10 of CC50 (log10 of the value in µM)
Please interpret these as log10 of CC50 where CC50 is in µM.

Guide cases for log10 of CC50, answers given:
structurestring=O=C1CCCC/C1=C\c1cccc([N+](=O)[O-])c1 endpointvalue=1.75
structurestring=O=C1/C(=C/c2ccc(F)cc2)CCC/C1=C\c1ccccc1[N+](=O)[O-] endpointvalue=1.83
structurestring=Cc1ccc(/C=C2\CCC/C(=C\c3ccc([N+](=O)[O-])cc3)C2=O)cc1 endpointvalue=2.54
structurestring=COc1ccc(/C=C2\CCC/C(=C\c3ccccc3[N+](=O)[O-])C2=O)cc1 endpointvalue=2.59
structurestring=O=C1/C(=C/c2ccc(Cl)cc2)CCC/C1=C\c1cccc([N+](=O)[O-])c1 endpointvalue=1.58

Data request: Entry under review: `COc1cc(/C=C2\CCC/C(=C\c3ccccc3[N+](=O)[O-])C2=O)cc(OC)c1OC` . Reported log10 of CC50?
Data returned: 1.90
